# Tested on: Cabbage Looper [Trichoplusia ni (Hubner)]
# experiment.notes: Cabbage looper insecticidal test
# Format: in vivo
# details: second-instar larvae, percent in solution; 3-5 days
Friendly reminder: LC50, CL below 0.0007% is criterion met, at or above is criterion not met.

For CC(C)C(=Nc1ccc2c(c1)CCC2)OCc1cccc(Oc2ccccc2)c1 [Compound 187] , is the recorded LC50, CL below the cut-off of 0.0007%?
criterion not met

Criterion: LC50, CL strictly below 0.0007%. Is it met by Cc1ccc(Oc2cccc(COC(=Nc3ccc(F)c(Cl)c3)C(C)C)n2)cc1 [Compound 494] ?
criterion not met

In the record for C=C(C)C(=Nc1ccc(F)c(Cl)c1)OCc1ccc(F)c(Oc2ccccc2)c1 [Compound 416] , is LC50, CL less than 0.0007%?
criterion met

Input COc1ccc(N=C(OCc2cccc(Oc3ccccc3)c2)C(C)C)c(OC)c1 [Compound 146] ; condition: LC50, CL strictly below 0.0007%. Does it hold?
criterion not met

Consider Cc1ccc(C)c(N=C(OCc2cccc(Oc3ccccc3)c2)C(C)C)c1 [Compound 250] . Does its LC50, CL lie strictly below 0.0007%?
criterion not met

Dear colleague, could you confirm whether LC50, CL of CC(C)C(=Nc1ccc(Br)cc1)OCc1ccc(F)c(Oc2ccc(Cl)cc2)c1 [Compound 378] falls below 0.0007%? Thanks.
criterion met

Item CC(C)C(=Nc1ccc2c(c1)OC(C)(C)O2)OCc1ccc(F)c(Oc2ccccc2)c1 [Compound 242] : LC50, CL beneath 0.0007%, strictly?
criterion met
